# System: COLO 205
# test_protocol: NCI tumour cell line growth inhibition, 48 h
Calls of active or inactive are those of the source. No stated cut-off is given here; in the data, active = GI50 up to about 1.1 µM and inactive = higher.
outcome_measure: GI50

Would you please look over these solved cases?
Cc1[nH]c(=O)[nH]c(=O)c1/C=C/C(=O)NC(CO)C[S+]([O-])C[S+](C)[O-] (centres undefined); 30 µM (inactive)
Cc1cc(=O)oc2cc(OC(=O)N(C)C)c(Cl)cc12; 95.9 µM (inactive)
COc1c2c(cc3occ(-c4ccc(CC=C(C)C)cc4)c(=O)c13)OC(C)(C)C=C2; 43.4 µM (inactive)

Please find the next compound below.
Name the reported GI50 value associated with the compound CCOC(=O)[C@@H]1ON2O[C@@H](OC3CCCC3(c3ccccc3)c3ccccc3)C[C@H]3OC(=O)[C@@H]1C32 (some centres undefined)
38.1 µM (inactive)

---

# System: OVCAR-3
# test_protocol: NCI tumour cell line growth inhibition, 48 h
Active and inactive are the calls of the source. Rule as the data show it: active = GI50 up to about 1.1 µM and inactive = higher.
outcome_measure: GI50

COc1cc(-c2cc(=O)c3c(OC)c(OC)c(OC)cc3o2)c(OC)c(OC)c1OC; 51.2 µM (inactive)

Name the reported GI50 value associated with the compound O=C1C(c2ccccc2)=C(c2ccccc2)C(c2ccc(Sc3ccc(C4=C(c5ccccc5)C(=O)C(c5ccccc5)=C4c4ccccc4)cc3)cc2)=C1c1ccccc1
> 100 µM (inactive)

Name the reported GI50 value associated with the compound COc1ccc2[nH]c(Cl)c(/C=C3/C(=O)Nc4cc(C)c(OC)cc43)c2c1
2.66 µM (inactive)

---

# System: NCI-H226
# test_protocol: NCI tumour cell line growth inhibition, 48 h
The source made the active and inactive calls. Rule as the data show it: active = GI50 up to about 1.1 µM and inactive = higher.
outcome_measure: GI50

CN(C)c1ccc(/C=C/C=c2/c3ccccc3n3c2cc(-c2ccccc2)[n+]3C)cc1; 0.454 µM (active)
C#CCn1c(=O)c(I)cn(/C(=C\C(=O)OCC)C(=O)OCC)c1=O; 17.9 µM (inactive)
COc1ccc(/C=N/n2c(Cc3ccccc3)n[nH]c2=O)cc1; > 100 µM (inactive)

Please find the next molecule below.
Name the reported GI50 value associated with the molecule CN1C(=O)C(O)CC1c1ccccc1C(F)(F)F (centres undefined)
> 100 µM (inactive)

---

# Test system: TK-10
# test_protocol: NCI tumour cell line growth inhibition, 48 h
Active and inactive are the calls of the source. Cut-off read from the data, not from the text of the source: active = GI50 up to about 1.1 µM and inactive = higher.
Measured GI50, listed per entry for reference.

Would you please look over these solved cases?
COc1ccc([C@H]2C=C(c3cc(F)c(Cl)cc3Cl)N=c3s/c(=C\c4ccc(-c5ccc(Cl)cc5Cl)o4)c(=O)n32)cc1; 12.1 µM (inactive)
O=C1CCC(=O)N1n1c(Cc2ccc(Cl)cc2)n[nH]c1=O; > 100 µM (inactive)
Nc1cc(CO)cc(Nc2c3ccccc3nc3ccccc23)c1; 16 µM (inactive)
CCOC(=O)c1nc2ccc(C(F)(F)F)cc2nc1Nc1ccc(Cl)c(Cl)c1; > 100 µM (inactive)
CC(C)[Si](OC12CCC(CC1O)CC2CO)(C(C)C)C(C)C (centres undefined); 14.4 µM (inactive)
CCN(CCCl)CCCNc1c2ccccc2nc2ccc(OC)cc12; 1.01 µM (active)

Find GI50 (TK-10) for the entry CCOC(=O)C(SCCO)C(C(=O)OCC)n1cnc2c(=O)[nH]c(NC(C)=O)nc21 (centres undefined)
> 100 µM (inactive)

Find GI50 (TK-10) for the entry CN(/N=C\c1ccc2ccccc2c1)C1=NCCN1
13.2 µM (inactive)

Find GI50 (TK-10) for the entry O=C1/C=C(/c2ccc(O)cc2)[C@@H](O)Cc2ccc(O)cc2O1
> 100 µM (inactive)
